Data provenance is ChEMBL document CHEMBL3988442.

Catalogue of Percent Effect readings, one per entry.
target: Polyketide synthase Pks13 (Mycobacterium tuberculosis (strain ATCC 25618 / H37Rv)); test: Mycobacterium tuberculosis Polyketide synthase 13 Thioesterase (PKS13); assay type: functional; parameters: scale not given: in the data most compounds retested in dose-response had high values; conditions: 30 µM
Out of some 67,000 compounds screened, about 300 (0.45%) showed an effect of 50% or more. The entries come from a sample that favours strong results as a whole.
Number in %, nothing else.

Examples with their reported Percent Effect follow.
[[record]]
compound = "CCCn1ncc(C(=O)N2CCCC(OCc3ccccn3)C2)c1C (stereo unspecified)"
units_symbol = "%"
reported_result = -15.6

[[record]]
compound = "Cc1cnc2c(C(=O)N3CCCC(OCc4ccccn4)C3)cnn2c1 (stereo unspecified)"
units_symbol = "%"
reported_result = 81.5

[[record]]
compound = "COCCN1C[C@H]2CN(C(=O)c3ccc4c(c3)OCO4)CCN2C1=O"
units_symbol = "%"
reported_result = 8.89

[[record]]
compound = "COC[C@H]1CC[C@H]2[C@H](CCN2S(=O)(=O)c2ccccc2)O1"
units_symbol = "%"
reported_result = 4.33

[[record]]
compound = "CSc1ccc2cc(CN(C)CCCN(C)C)c(=O)[nH]c2c1"
units_symbol = "%"
reported_result = 6.22


Inquiry: For the compound shown here, O=C(c1cnn2ccccc12)N1CCCC(OCc2ccccn2)C1 (stereo unspecified) , give the reported Percent Effect.
Reply text: -9.11

Inquiry: Look up Percent Effect: O=C(c1cc2c([nH]c1=O)CCC2)N1CCCC1c1ccc(F)cc1 (stereo unspecified)
Reply text: -4.09

Inquiry: // Percent Effect lookup, key: O=C(CC1CC1)N1C[C@H]2CN(CC3CC3)C(=O)[C@H]2C1
Reply text: -22.1

Inquiry: Quick one: Percent Effect of COCc1nc(C(=O)N2CCCC2c2ccncc2)cs1 (stereo unspecified) ?
Reply text: -19.5

Inquiry: Consider the compound O=C(NCc1ccco1)[C@H]1C[C@H]2OCC[C@H]2N(C(=O)c2ccnnc2)C1 and give its measured Percent Effect.
Reply text: -21.2

Inquiry: What value of measured Percent Effect is listed for CSc1ccc2cc(CN(C)CCO)c(=O)[nH]c2c1 ?
Reply text: 67
